The reported measurements were obtained from DBAASP.

Tested on: Staphylococcus epidermidis ATCC 12228
QUANTITY_KIND: MIC

Identify the measured MIC of CC(C)C[C@H](NC(=O)[C@H](C)NC(=O)CNC(=O)[C@H](CC(C)C)NC(=O)[C@@H](N)Cc1ccccc1)C(=O)N[C@@H](Cc1c[nH]c2ccccc12)C(=O)N[C@@H](CC(N)=O)C(=O)N[C@H](C(=O)N[C@@H](CCCCN)C(=O)N[C@@H](CCCCN)C(=O)N[C@@H](CO)C(=O)N[C@H](C(=O)N[C@@H](Cc1ccccc1)C(N)=O)C(C)C)C(C)C for Staphylococcus epidermidis ATCC 12228.
> 50 µM

----------
Consider compounds characterized by their log10 of MIC with Staphylococcus aureus ATCC 25923.
Please note: log10 values; quantity MIC; unit µM.

Below: 2 compounds and their reported log10 of MIC.
I have this compound here, CC[C@H](C)[C@H](N)C(=O)N[C@@H](CC(C)C)C(=O)NCC(=O)N[C@@H](CCCCN)C(=O)N[C@@H](CC(C)C)C(=O)N[C@@H](CC(C)C)C(=O)N[C@@H](CO)C(=O)N[C@H](C(=O)N[C@@H](C)C(=O)N[C@@H](C)C(=O)NCC(=O)N[C@@H](CC(C)C)C(=O)N[C@@H](CC(C)C)C(=O)N[C@@H](CCCCN)C(=O)N[C@@H](CC(N)=O)C(=O)N[C@@H](CC(C)C)C(N)=O)[C@@H](C)O , and I need its recorded log10 of MIC.
1.20

One more compound: CC[C@H](C)[C@H](NC(=O)[C@H](CCC(=O)O)NC(=O)[C@H](C)NC(=O)[C@@H](NC(=O)[C@H](CCCCN)NC(=O)[C@H](CCCCN)NC(=O)CN)[C@@H](C)O)C(=O)N[C@@H](CCC(=O)O)C(=O)N[C@@H](CCCCN)C(=O)O
3.10

---
Need log10 of MIC, item CC[C@H](C)[C@H](N)C(=O)N[C@@H](CC(N)=O)C(=O)N[C@@H](CC(C)C)C(=O)N[C@@H](CCCCN)C(=O)N[C@@H](C)C(=O)N[C@H](C(=O)N[C@@H](C)C(=O)N[C@@H](C)C(=O)N[C@@H](CC(C)C)C(=O)N[C@@H](C)C(=O)N[C@@H](CCCCN)C(=O)N[C@@H](CCCCN)C(=O)N[C@@H](CC(C)C)C(=O)N[C@@H](Cc1ccccc1)C(N)=O)[C@@H](C)CC
0.60

Can you handle CSCC[C@H](NC(=O)[C@H](Cc1c[nH]c2ccccc12)NC(=O)[C@H](CC(C)C)NC(=O)[C@H](C)N)C(=O)N[C@H](C(=O)N[C@@H](CC(C)C)C(=O)N[C@@H](CC(C)C)C(=O)N[C@@H](CCCCN)C(=O)N[C@@H](CCCCN)C(=O)N[C@H](C(=O)N[C@@H](CC(C)C)C(=O)N[C@@H](CCCCN)C(=O)N[C@@H](C)C(N)=O)C(C)C)[C@@H](C)O next?
0.78

Try this compound too: CC[C@H](C)[C@H](NC(=O)[C@H](CCCCN)NC(=O)[C@H](CC(C)C)NC(=O)[C@H](CC(C)C)NC(=O)CN)C(=O)N[C@H](C(=O)N[C@@H](CCCCN)C(=O)N[C@H](C(=O)N[C@@H](CC(C)C)C(=O)N[C@@H](CC(C)C)C(N)=O)[C@@H](C)O)[C@@H](C)CC
0.26

And CC[C@H](C)[C@H](NC(=O)[C@H](CCCCN)NC(=O)[C@H](CC(N)=O)NC(=O)[C@H](CC(C)C)NC(=O)[C@@H](NC(=O)[C@H](CCCCN)NC(=O)[C@@H]1CCCN1)[C@@H](C)CC)C(=O)N[C@@H](CC(C)C)C(=O)NCC(=O)N[C@@H](CCCCN)C(=O)N[C@H](C(=O)N[C@@H](CC(C)C)C(=O)N[C@@H](CCCN=C(N)N)C(=O)N[C@@H](CC(C)C)C(=O)N[C@@H](C)C(=O)N[C@@H](C)C(=O)N[C@@H](C)C(=O)N[C@@H](Cc1ccccc1)C(=O)N[C@@H](CCCCN)C(N)=O)[C@@H](C)CC ?
0.48
